# method: gradient 5% acetonitrile 3 min, to 50% in 2 min, to 85% in 15 min, held 3 min, 100 µL/min
# settings: column: Zorbax Extend-C18 2.1 x 50 mm; eluents: water / acetonitrile, 0.1% formic acid
parameter_measured: RP-LC retention time
Note: a bare number is incomplete; add the unit.

CCOCCCNCc1ccc(-c2cc(Cl)ccc2Cl)o1 :: 753 s
CCc1nc(-c2csc(S(=O)(=O)N3CCCC(C(=O)Nc4ccc(OC)cc4)C3)c2)no1 (configuration not stated) :: 917 s
COC(=O)c1ccccc1NCCO :: 787 s
O=C([C@@H]1C[C@H](F)CN1S(=O)(=O)c1cc(F)ccc1F)N1CCCCC1 :: 794 s
CNC(=O)c1cc(COc2nnc(Nc3ccc(Cl)cc3)c3ccoc23)ccn1 :: 749 s
Cc1cccc(NC(=O)N2CCC3(C2)C(=O)N(C)c2ccccc23)c1 (configuration not stated) :: 808 s

Next:
Would you kindly share the measured RP-LC retention time for COc1ccc(-c2cc(C(=O)Nc3ccccc3)nn2C2CCS(=O)(=O)C2)cc1 (configuration not stated) ? 911 s
